Assay system: human organic cation transporter 3 (hOCT3) (Homo sapiens)
Sequence (O75751 1-556): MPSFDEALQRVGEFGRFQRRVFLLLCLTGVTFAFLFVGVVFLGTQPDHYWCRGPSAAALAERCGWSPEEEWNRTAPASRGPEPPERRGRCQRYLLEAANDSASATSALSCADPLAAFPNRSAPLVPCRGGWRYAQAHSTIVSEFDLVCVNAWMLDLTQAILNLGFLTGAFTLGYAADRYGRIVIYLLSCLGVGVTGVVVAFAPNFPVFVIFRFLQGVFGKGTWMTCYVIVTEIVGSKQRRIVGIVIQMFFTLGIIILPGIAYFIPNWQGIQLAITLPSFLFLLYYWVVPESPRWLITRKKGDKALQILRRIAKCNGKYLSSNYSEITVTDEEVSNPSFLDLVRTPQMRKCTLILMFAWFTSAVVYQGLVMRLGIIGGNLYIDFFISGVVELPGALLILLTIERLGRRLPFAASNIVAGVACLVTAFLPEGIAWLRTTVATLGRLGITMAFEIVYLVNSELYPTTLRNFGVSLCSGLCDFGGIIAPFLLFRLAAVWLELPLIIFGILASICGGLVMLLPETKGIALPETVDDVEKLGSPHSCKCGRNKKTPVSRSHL
Procedure details: Histamine incorporation experiment in HEK293 cells expressing hOCT3 (OCT3 inhibition activity)
Experimental parameters: control curve
Measurement type: IC50 (µM)

> print(dat)
                                   compound  readout.value
1  NC(N)=Nc1cccc(CSCC/C(N)=N/S(=O)(=O)C(F)(F)F)n1 [SR-2022]           10.5

a = Cc1nc(CCSCc2ccnc(N=C(N)N)c2)[nH]c(=O)c1CCc1ccccc1 [SR-2219]
b = Cc1nc(CCSCc2cccc(N=C(N)N)n2)[nH]c(=O)c1CCc1ccccc1 [SR-2036]
INPUT: Rank a against b by their IC50 values and give the higher one. Answer by quoting the chosen item's label.
OUTPUT: a

###

Assay system: human organic cation transporter 3 (hOCT3) (Homo sapiens, UniProt O75751)
Construct: expressed in transfected cells; host or cells: HEK293
Sequence (O75751 1-556): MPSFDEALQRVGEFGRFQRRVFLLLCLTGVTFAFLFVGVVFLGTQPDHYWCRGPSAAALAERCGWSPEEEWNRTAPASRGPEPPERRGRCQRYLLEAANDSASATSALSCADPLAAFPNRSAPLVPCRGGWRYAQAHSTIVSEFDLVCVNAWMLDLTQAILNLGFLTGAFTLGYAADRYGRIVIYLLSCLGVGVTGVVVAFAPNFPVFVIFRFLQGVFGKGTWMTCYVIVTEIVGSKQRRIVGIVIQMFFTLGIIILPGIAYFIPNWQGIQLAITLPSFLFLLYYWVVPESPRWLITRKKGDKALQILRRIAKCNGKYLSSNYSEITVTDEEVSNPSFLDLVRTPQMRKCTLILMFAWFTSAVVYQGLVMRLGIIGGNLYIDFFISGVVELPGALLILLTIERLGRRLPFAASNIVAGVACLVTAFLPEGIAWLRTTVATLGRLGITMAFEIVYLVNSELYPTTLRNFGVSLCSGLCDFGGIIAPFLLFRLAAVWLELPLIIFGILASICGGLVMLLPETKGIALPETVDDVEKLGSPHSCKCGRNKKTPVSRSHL
Procedure details: Histamine incorporation experiment in HEK293 cells expressing hOCT3 (OCT3 inhibition activity)
Assay type: cell-based
Experimental parameters: Tables 3-1 to 3-15; in a manner similar to Example 12 (30 μM there); concentration not given in the tables
Measurement type: OCT3 Inhibition Rate (%)

> print(dat)
                   compound.smiles  unit.info  readout.value
1  CSc1nc(CSCCC(N)=NS(N)(=O)=O)cs1          %           13.8

P = NC(N)=Nc1nc(CSCCC(=O)NC(=O)c2ccccc2)cs1
Q = Cc1nc(CSCC/C(N)=N/S(=O)(=O)C(F)(F)F)cs1
INPUT: Lab note: record which item had the higher OCT3 Inhibition Rate (%), P or Q . Give the label under which the chosen entry appears.
OUTPUT: P
(P: 21.8%, Q: −7.4%)

1 = Cc1nc(CCCOc2cc(N=C(N)N)ccn2)[nH]c(=O)c1CCc1ccccc1
2 = Cc1nc(CCSCc2ccc([N+](=O)[O-])n2Cc2ccccc2)[nH]c(=O)c1CCc1ccccc1
INPUT: Please indicate which item has the smaller measured OCT3 Inhibition Rate (%): 1 versus 2 // caller expects the label of the chosen entry
OUTPUT: 2
(2: 8.7%, 1: 17.5%)

I = N=C(NCc1csc(N=C(N)N)n1)NS(N)(=O)=O
II = N=C(N)NCCCCc1csc(N=C(N)N)n1
INPUT: For the pair I and II , which entry has the numerically smaller recorded OCT3 Inhibition Rate (%)? Pick one; state its label.
OUTPUT: I
(I: −11.5%, II: 27.0%)

###

Assay system: human organic cation transporter 3 (hOCT3) (Homo sapiens)
Construct: expressed in transfected cells; host or cells: HEK293
Sequence (O75751 1-556): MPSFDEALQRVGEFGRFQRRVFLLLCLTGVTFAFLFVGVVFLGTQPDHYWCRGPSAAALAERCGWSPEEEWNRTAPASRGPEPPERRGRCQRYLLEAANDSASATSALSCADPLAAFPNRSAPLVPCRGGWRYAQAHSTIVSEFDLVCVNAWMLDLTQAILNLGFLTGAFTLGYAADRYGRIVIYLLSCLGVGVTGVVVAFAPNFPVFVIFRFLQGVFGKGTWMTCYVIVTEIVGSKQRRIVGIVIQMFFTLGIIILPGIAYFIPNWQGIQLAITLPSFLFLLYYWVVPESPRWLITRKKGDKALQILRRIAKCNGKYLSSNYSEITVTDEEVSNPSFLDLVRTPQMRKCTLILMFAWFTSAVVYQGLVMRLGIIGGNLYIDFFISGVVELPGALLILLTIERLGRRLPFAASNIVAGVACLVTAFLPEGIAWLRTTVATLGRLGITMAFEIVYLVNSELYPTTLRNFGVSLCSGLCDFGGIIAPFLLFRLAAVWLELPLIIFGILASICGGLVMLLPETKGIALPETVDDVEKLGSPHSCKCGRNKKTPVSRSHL
Procedure details: Histamine incorporation experiment in HEK293 cells expressing hOCT3 (OCT3 inhibition activity)
Format: cell-based
Experimental parameters: Tables 3-1 to 3-15; in a manner similar to Example 12 (30 μM there); concentration not given in the tables
Measurement type: OCT3 Inhibition Rate (%)

Recorded OCT3 Inhibition Rate (%), per entry:
> print(dat)
                            compound.smiles  readout.value
1               NC(CCSCc1cscn1)=NS(N)(=O)=O          −14.7
2           NC(N)=Nc1nc(CSCCc2ccc(F)cc2)cs1           33.3
3  NC(N)=Nc1nc(CS/C(N)=N/S(=O)(=O)C(F)(F)F)cs1            6.2
4           NC(N)=Nc1nc(CNCCc2ccc(F)cc2)cs1           28.6

A = CNCCCCc1csc(N=C(N)N)n1
B = NC(N)=Nc1nc(CSCCC(N)=NS(=O)(=O)C(F)(F)F)cs1
C = N=C(N)CCSCc1csc(N=C2NCCN2)n1
D = CC(C)c1nc(CSCCC(N)=NS(=O)(=O)C(F)(F)F)cs1
INPUT: Hello, I need these entries ordered by OCT3 Inhibition Rate (%), highest reading first. Thanks! Rank the items, then write their labels in that order.
OUTPUT: B, C, A, D

I = Cc1nc(CCSCc2csc(N=C3NCCN3)n2)[nH]c(=O)c1CCc1ccccc1
II = CN/C(=C\[N+](=O)[O-])NCCSCc1csc(N=C(N)N)n1
INPUT: Param pair: I , II . Output: the one whose OCT3 Inhibition Rate (%) is numerically greater. Answer by quoting the chosen item's label.
OUTPUT: I

###

Assay system: human organic cation transporter 3 (hOCT3) (Homo sapiens, UniProt O75751)
Construct: expressed in transfected cells; host or cells: HEK293
Procedure details: Histamine incorporation experiment in HEK293 cells expressing hOCT3 (OCT3 inhibition activity)
Type: cell-based
Experimental parameters: Tables 3-1 to 3-15; in a manner similar to Example 12 (30 μM there); concentration not given in the tables
Measurement type: OCT3 Inhibition Rate (%)

Consider the following illustrative entries.
> print(dat)
                                   compound  readout.value
1  Cc1nc(CSCC/C(N)=N/S(N)(=O)=O)cs1 [SR-2228]           17.6
2  Cc1[nH]c(CCSCc2cscn2)nc(=O)c1CCc1ccccc1 [SR-3003]           40.6

P = NC(N)=Nc1nc(CSc2ccc(F)cc2)cs1 [SR-3123]
Q = CNC(=O)CCCCc1csc(N=C(N)N)n1 [SR-2075]
R = NC(N)=Nc1nc(CS/C(N)=N\S(N)(=O)=O)cs1 [SR-3155]
INPUT: Please give the order of these compounds when sorted by OCT3 Inhibition Rate (%), largest value leading. To answer, write out the labels according to the requested order.
OUTPUT: P, Q, R

a = NC(N)=Nc1nc(CSCCc2ncc(CCc3ccccc3)o2)cs1 [SR-2051]
b = NC(N)=Nc1cccc(CSCC/C(N)=N/S(=O)(=O)C(F)(F)F)c1 [SR-2020]
INPUT: Select one: a or b . Criterion: greater recorded OCT3 Inhibition Rate (%). Identify your pick by its label.
OUTPUT: a

Reference source: patent US9745274B2
